Measured LogP, listed per entry for reference.
Test: Log P by HPLC on reversed phase columns (EEC directive 79/831 Annex V.A8)
Format: physicochemical
Measurement Setup: method [a]: LC-UV, acidic range, 0.1% formic acid in water and acetonitrile

Reference set (8 entries):
CC(C)COC(=O)c1sc(Cl)c(Br)c1F ... 5.28^[a]
O=C1CC(NC(=O)c2cc(Br)c(Cl)s2)CN1 (stereo not shown) ... 1.73^[a]
Cc1c(Cl)sc(C(=O)O)c1Cl ... 2.76^[a]
Cc1c(C(=O)NC2CCOC2=O)sc(Br)c1Cl (stereo not shown) ... 2.45^[a]
O=C(NC1CCCCNC1=O)c1sc(Cl)c(Cl)c1Br (stereo not shown) ... 2.99^[a]
Cc1c(C(=O)O)sc(F)c1Cl ... 2.45^[a]
COC(=O)c1sc(Br)c(C#N)c1C ... 3.06^[a]
Cc1sc(C(=O)O)c(Cl)c1Cl ... 2.49^[a]

Asked: Entry `Cc1cc(C(=O)O)sc1Cl` : reported LogP = ?
Given back: 2.16^[a]

Asked: Entry `CC[C@H](C)[C@H](NC(=O)c1sc(Br)c(Br)c1F)C(=O)OC` : reported LogP = ?
Given back: 4.37^[a]

* * *

Test: Log P by HPLC on reversed phase columns (EEC directive 79/831 Annex V.A8)
Type: physicochemical
Measurement Setup: LogP method [a]; compounds of formula (I), Table 1.1
Measured LogP, listed per entry for reference.

Reference set (4 entries):
N#CCNC(=O)c1sc(C(F)F)c(Br)c1Br ... 2.45^[a]
COC(=O)C1(NC(=O)c2sc(C(F)F)c(Br)c2Br)CC1 ... 2.79^[a]
CCOC(=O)C1(NC(=O)c2cc(Br)c(Cl)s2)CC1 ... 3.43^[a]
CCOC(=O)C(Cc1ccccc1)NC(=O)c1sc(Br)c(Cl)c1F (stereo not shown) ... 4.48^[a]

Asked: Entry `CCOC(=O)CCNC(=O)c1sc(Br)c(Br)c1F` : reported LogP = ?
Given back: 3.11^[a]

Asked: Entry `CCOC(=O)C1(NC(=O)c2sc(C(F)F)c(Br)c2Br)CCC1` : reported LogP = ?
Given back: 3.75^[a]

Asked: Entry CCOC(=O)C(NC(=O)c1sc(C(F)F)c(Br)c1Br)C(C)C (stereo not shown) : reported LogP = ?
Given back: 4.30^[a]

Asked: Entry `CCOC(=O)C1(NC(=O)c2cc(Br)c(Cl)s2)CCC1` : reported LogP = ?
Given back: 3.44^[a]

Asked: Entry `O=C(NC1(C(=O)OC2CCC2)CC1)c1sc(Br)c(C(F)F)c1Br` : reported LogP = ?
Given back: 3.57^[a]

Asked: Entry `O=C(NC1(C(=O)O)CCC1)c1sc(Br)c(Br)c1Cl` : reported LogP = ?
Given back: 2.92^[a]

* * *

Test: Log P by HPLC on reversed phase columns (EEC directive 79/831 Annex V.A8)
Format: physicochemical
Measurement Setup: method [a]: LC-UV, acidic range, 0.1% formic acid in water and acetonitrile
Recorded Endpoint: LogP

O=C(O)c1sc(Br)c(Br)c1C(F)F [II.006] ... 2.46^[a]
CCOC(=O)c1sc(Cl)c(Br)c1Cl [II.089] ... 4.62^[a]
COC(=O)c1sc(C)c(Br)c1F [II.084] ... 3.15^[a]
COC(=O)c1sc(Cl)c(C#N)c1Br [II.095] ... 2.92^[a]

Asked: Entry COC(=O)c1sc(C#N)c(Cl)c1Br [II.096] : reported LogP = ?
Given back: 3.04^[a]

Asked: Entry N#Cc1sc(C(=O)O)cc1Br [II.036] : reported LogP = ?
Given back: 1.41^[a]

Asked: Entry O=C(N[C@H]1CCSC1=O)c1sc(Cl)c(Br)c1Cl [I.0525] : reported LogP = ?
Given back: 3.28^[a]

Entry source: patent US12642270B2
